- test.context: in methanol, 325.15 K

# compound.smiles, solubility (mole fraction)
rows = [
    ("Brc1sc(Br)c(Br)c1Br", 0.00169),
]

====

- test.context: in chloroform, 286.15 K

# compound.smiles, solubility (mole fraction)
data = [
    ("Brc1sc(Br)c(Br)c1Br", 0.0269),
]
